kcat of FX activation by FIXa (Xase complex with FVIIIa, PC/PS vesicles, Ca2+) listing for selected proteins.
study_target: Factor X, P00742
Sequence (P00742 whole entry, looked up): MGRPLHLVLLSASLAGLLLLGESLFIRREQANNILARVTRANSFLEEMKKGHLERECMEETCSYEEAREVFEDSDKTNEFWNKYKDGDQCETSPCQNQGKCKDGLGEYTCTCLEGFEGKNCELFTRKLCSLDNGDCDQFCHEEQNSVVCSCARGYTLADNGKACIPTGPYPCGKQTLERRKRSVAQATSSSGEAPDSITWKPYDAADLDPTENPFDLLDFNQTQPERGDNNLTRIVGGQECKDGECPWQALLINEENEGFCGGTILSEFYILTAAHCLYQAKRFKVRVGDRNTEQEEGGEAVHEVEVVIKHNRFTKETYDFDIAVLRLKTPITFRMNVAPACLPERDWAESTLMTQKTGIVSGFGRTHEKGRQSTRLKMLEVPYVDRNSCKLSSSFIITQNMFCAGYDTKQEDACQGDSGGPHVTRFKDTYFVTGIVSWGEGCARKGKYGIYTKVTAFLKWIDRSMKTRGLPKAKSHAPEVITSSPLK
Provide the reading as a plain figure in s⁻¹.

Answered examples (6):
FIXa-A103N/N105S/K247N/N249S/R318Y/R338E/R403E/E410N (protein) chain 1: YNSGKLEEFVQGNLERECMEEKCSFEEAREVFENTERTTEFWKQYVDGDQCESNPCLNGGSCKDDINSYECWCPFGFEGKNCELDVTCNIKNGRCEQFCKNSNDSKVVCSCTEGYRLAENQKSCEPAVPFPCGRVSVSQTSKLTR chain 2: VVGGEDAKPGQFPWQVVLNGKVDAFCGGSIVNEKWIVTAAHCVETGVKITVVAGEHNIEETEHTEQNRSVIRIIPHHNYNAAINKYNHDIALLELDEPLVLNSYVTPICIADKEYTNIFLKFGSGYVSGWGRVFHKGYSALVLQYLRVPLVDRATCLESTKFTIYNNMFCAGFHEGGRDSCQGDSGGPHVTEVEGTSFLTGIISWGEECAMKGKYGIYTKVSEYVNWIKNKTKLT ... 4.1
FIXa-Y155F/K247N/N249S/R318Y/R338E/R403E/E410N (protein) chain 1: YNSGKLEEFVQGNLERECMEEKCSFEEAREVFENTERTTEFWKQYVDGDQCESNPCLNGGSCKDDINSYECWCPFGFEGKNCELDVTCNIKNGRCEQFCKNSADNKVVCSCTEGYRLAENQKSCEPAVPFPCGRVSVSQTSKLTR chain 2: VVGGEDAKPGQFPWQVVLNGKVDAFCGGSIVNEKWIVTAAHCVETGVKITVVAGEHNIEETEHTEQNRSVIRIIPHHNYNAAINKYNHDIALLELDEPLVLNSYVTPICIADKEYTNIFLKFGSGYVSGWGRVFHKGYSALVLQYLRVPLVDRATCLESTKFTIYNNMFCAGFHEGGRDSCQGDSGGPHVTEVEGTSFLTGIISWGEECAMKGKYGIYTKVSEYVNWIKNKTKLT ... 6.5
FIXa-I251S/R318Y/R338E/E410N (protein) chain 1: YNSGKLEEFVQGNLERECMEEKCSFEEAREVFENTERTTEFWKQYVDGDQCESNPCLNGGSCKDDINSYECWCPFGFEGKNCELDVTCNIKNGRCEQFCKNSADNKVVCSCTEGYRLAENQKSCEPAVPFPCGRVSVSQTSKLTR chain 2: VVGGEDAKPGQFPWQVVLNGKVDAFCGGSIVNEKWIVTAAHCVETGVKITVVAGEHNIEETEHTEQKRNVSRIIPHHNYNAAINKYNHDIALLELDEPLVLNSYVTPICIADKEYTNIFLKFGSGYVSGWGRVFHKGYSALVLQYLRVPLVDRATCLESTKFTIYNNMFCAGFHEGGRDSCQGDSGGPHVTEVEGTSFLTGIISWGEECAMKGKYGIYTKVSRYVNWIKNKTKLT ... 6.2
FIXa-D85N/K228N/R318Y/R338E/R403E/E410N (protein) chain 1: YNSGKLEEFVQGNLERECMEEKCSFEEAREVFENTERTTEFWKQYVDGDQCESNPCLNGGSCKDDINSYECWCPFGFEGKNCELNVTCNIKNGRCEQFCKNSADNKVVCSCTEGYRLAENQKSCEPAVPFPCGRVSVSQTSKLTR chain 2: VVGGEDAKPGQFPWQVVLNGKVDAFCGGSIVNEKWIVTAAHCVETGVNITVVAGEHNIEETEHTEQKRNVIRIIPHHNYNAAINKYNHDIALLELDEPLVLNSYVTPICIADKEYTNIFLKFGSGYVSGWGRVFHKGYSALVLQYLRVPLVDRATCLESTKFTIYNNMFCAGFHEGGRDSCQGDSGGPHVTEVEGTSFLTGIISWGEECAMKGKYGIYTKVSEYVNWIKNKTKLT ... 6
FIXa-K228N/K247N/N249S/R318Y/R338E/R403E/E410N (protein) chain 1: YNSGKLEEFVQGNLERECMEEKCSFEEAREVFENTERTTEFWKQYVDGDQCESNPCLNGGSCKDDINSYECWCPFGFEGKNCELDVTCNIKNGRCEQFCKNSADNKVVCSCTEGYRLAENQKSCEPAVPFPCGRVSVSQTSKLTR chain 2: VVGGEDAKPGQFPWQVVLNGKVDAFCGGSIVNEKWIVTAAHCVETGVNITVVAGEHNIEETEHTEQNRSVIRIIPHHNYNAAINKYNHDIALLELDEPLVLNSYVTPICIADKEYTNIFLKFGSGYVSGWGRVFHKGYSALVLQYLRVPLVDRATCLESTKFTIYNNMFCAGFHEGGRDSCQGDSGGPHVTEVEGTSFLTGIISWGEECAMKGKYGIYTKVSEYVNWIKNKTKLT ... 6.1
FIXa-Y155F/K228N/R318Y/R338E/R403E/E410N (protein) chain 1: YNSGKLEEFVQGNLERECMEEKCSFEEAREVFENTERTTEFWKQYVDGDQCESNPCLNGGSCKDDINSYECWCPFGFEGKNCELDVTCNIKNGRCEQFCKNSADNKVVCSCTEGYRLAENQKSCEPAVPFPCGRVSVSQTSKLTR chain 2: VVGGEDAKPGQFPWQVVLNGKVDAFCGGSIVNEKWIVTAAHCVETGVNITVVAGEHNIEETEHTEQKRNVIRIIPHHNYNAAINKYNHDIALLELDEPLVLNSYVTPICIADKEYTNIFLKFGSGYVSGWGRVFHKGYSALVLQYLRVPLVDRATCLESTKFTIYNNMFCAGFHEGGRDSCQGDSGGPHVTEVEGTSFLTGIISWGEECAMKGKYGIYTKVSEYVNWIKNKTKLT ... 9.7

// moving on: another record for kcat of FX activation by FIXa (Xase complex with FVIIIa, PC/PS vesicles, Ca2+)
kcat of FX activation by FIXa (Xase complex with FVIIIa, PC/PS vesicles, Ca2+) recorded for this protein, FIXa-Y155F/K247N/N249S/R318Y/R338E/E410N (protein) chain 1: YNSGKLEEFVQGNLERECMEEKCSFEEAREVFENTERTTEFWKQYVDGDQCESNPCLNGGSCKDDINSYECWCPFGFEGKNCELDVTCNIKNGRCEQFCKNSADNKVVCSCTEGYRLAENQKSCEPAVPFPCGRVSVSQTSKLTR chain 2: VVGGEDAKPGQFPWQVVLNGKVDAFCGGSIVNEKWIVTAAHCVETGVKITVVAGEHNIEETEHTEQNRSVIRIIPHHNYNAAINKYNHDIALLELDEPLVLNSYVTPICIADKEYTNIFLKFGSGYVSGWGRVFHKGYSALVLQYLRVPLVDRATCLESTKFTIYNNMFCAGFHEGGRDSCQGDSGGPHVTEVEGTSFLTGIISWGEECAMKGKYGIYTKVSRYVNWIKNKTKLT , is 4.3
